Tested on: Dothiorella gregaria
Assay: Fungicidal activity against Dothiorella gregaria assessed as inhibition of fungal growth at 50 ug/ml after 48 hr
Type: functional
Mark y for reported inhibition at 50 µg/mL of 80% or greater; mark n for anything smaller.

Below are worked cases with known answers.
Compound	Category
Fc1cccc(F)c1CSc1nc2c(F)cccc2s1	n
CC(C)(C)C(=O)C(Oc1ccc(Cl)cc1)n1cncn1 (stereo not drawn)	n
Fc1ccccc1CSc1nc2c(Cl)cc(C(F)(F)F)cc2s1	n
Fc1ccc(CSc2nc3ccc(F)c(F)c3s2)cc1F	y
Fc1cccc(F)c1CSc1nc2c(Cl)cc(C(F)(F)F)cc2s1	n

Would you say "Fc1ccc(CSc2nc3c(F)cccc3s2)cc1F" shows inhibition at 50 µg/mL at minimum 80%?
y

What would you report for "Fc1ccc2sc(SCc3c(F)cccc3F)nc2c1" ?
n

What would you report for "Fc1ccc(CSc2nc3c(Cl)cc(C(F)(F)F)cc3s2)cc1F" ?
n

---

Test system: Rhizoctonia solani
Assay: Fungicidal activity against Rhizoctonia solani assessed as inhibition of fungal growth at 50 ug/ml after 48 hr
Type: functional
Measured Property: inhibition at 50 µg/mL

Compound	inhibition at 50 µg/mL
Fc1cccc(F)c1CSc1nc2c(F)cccc2s1	74%
Fc1ccc2sc(SCc3ccc(F)c(F)c3)nc2c1	86%
Fc1ccc2sc(SCc3c(F)cccc3F)nc2c1	80%
CC(C)(C)C(=O)C(Oc1ccc(Cl)cc1)n1cncn1 (stereo not drawn) [TRIADIMEFON]	90%
Fc1ccccc1CSc1nc2c(F)cccc2s1	82%
Fc1ccc2sc(SCc3ccccc3F)nc2c1	82%
Fc1ccccc1CSc1nc2c(Cl)cc(C(F)(F)F)cc2s1	83%
Fc1ccc(CSc2nc3ccc(F)c(F)c3s2)cc1F	85%
Fc1ccccc1CSc1nc2ccc(F)c(F)c2s1	84%
Fc1cccc(F)c1CSc1nc2ccc(F)c(F)c2s1	82%

Please provide the recorded inhibition at 50 µg/mL for "Fc1cccc(F)c1CSc1nc2c(Cl)cc(C(F)(F)F)cc2s1" , tested on Rhizoctonia solani.
69%

What would you report for "Fc1ccc(CSc2nc3c(F)cccc3s2)cc1F" ?
92%

What would you report for "Fc1ccc(CSc2nc3c(Cl)cc(C(F)(F)F)cc3s2)cc1F" ?
40%

---

System: Dothiorella gregaria
Assay: Fungicidal activity against Dothiorella gregaria assessed as inhibition of fungal growth at 50 ug/ml after 48 hr
Format: functional
Measured Property: inhibition at 50 µg/mL (%)
Your answer should be a plain number; it is taken to be in %.

Consider the following illustrative entries.
Smi	inhibition at 50 µg/mL, %
Fc1ccccc1CSc1nc2ccc(F)c(F)c2s1	81
Fc1ccc2sc(SCc3ccc(F)c(F)c3)nc2c1	78
Fc1cccc(F)c1CSc1nc2ccc(F)c(F)c2s1	81
Fc1ccccc1CSc1nc2c(F)cccc2s1	78

Given the entry "Fc1ccc2sc(SCc3ccccc3F)nc2c1" , report its measured inhibition at 50 µg/mL.
81
